# TARGET_UNDER_TEST: B-Raf^V600E
# Sequence (P28028 whole entry V585E): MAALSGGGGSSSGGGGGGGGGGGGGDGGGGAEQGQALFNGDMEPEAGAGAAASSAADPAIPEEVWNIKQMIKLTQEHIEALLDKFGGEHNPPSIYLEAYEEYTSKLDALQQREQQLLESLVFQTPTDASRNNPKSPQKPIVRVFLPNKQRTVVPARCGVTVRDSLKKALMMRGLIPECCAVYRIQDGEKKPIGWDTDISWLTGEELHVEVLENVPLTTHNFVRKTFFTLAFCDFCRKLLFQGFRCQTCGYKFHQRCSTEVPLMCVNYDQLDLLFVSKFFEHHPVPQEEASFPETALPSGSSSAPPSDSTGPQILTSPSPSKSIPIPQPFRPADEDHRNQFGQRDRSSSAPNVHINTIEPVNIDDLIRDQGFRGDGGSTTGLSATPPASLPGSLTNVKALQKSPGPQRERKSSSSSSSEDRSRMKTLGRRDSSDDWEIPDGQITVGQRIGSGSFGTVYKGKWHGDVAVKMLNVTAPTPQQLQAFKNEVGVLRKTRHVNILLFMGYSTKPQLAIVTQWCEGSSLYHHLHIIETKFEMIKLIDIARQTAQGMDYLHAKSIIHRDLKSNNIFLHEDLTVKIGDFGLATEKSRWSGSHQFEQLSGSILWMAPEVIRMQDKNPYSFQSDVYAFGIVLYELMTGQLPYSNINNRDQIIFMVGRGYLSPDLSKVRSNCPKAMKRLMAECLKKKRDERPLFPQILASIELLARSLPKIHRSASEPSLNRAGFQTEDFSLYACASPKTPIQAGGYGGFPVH
# ASSAY_SUMMARY: V600E mutant B-Raf kinase inhibitory assay (B-Raf^V600E mediated MEK phosphorylation)
METRIC_NAME: IC50 (nM)
Field: numeric (nM). Do not append units.

Some solved cases for reference:
- MOLECULE: "Oc1ccccc1C1CC(c2ccc(F)cc2)=NN1c1ccccc1 (stereo not drawn)"
  TARGET_UNDER_TEST: "B-Raf^V600E"
  IC50 [nM]: 71900
- MOLECULE: "Oc1ccc(Cl)cc1C1CC(c2ccc(Cl)c(Cl)c2)=NN1c1ccccc1 (stereo not drawn)"
  TARGET_UNDER_TEST: "B-Raf^V600E"
  IC50 [nM]: 500
- MOLECULE: "Oc1c(Cl)cc(Cl)cc1C1CC(c2ccc(Br)cc2)=NN1c1ccccc1 (stereo not drawn)"
  TARGET_UNDER_TEST: "B-Raf^V600E"
  IC50 [nM]: 3120
- MOLECULE: "Oc1ccccc1C1CC(c2ccc(Br)cc2)=NN1c1ccccc1 (stereo not drawn)"
  TARGET_UNDER_TEST: "B-Raf^V600E"
  IC50 [nM]: 630
- MOLECULE: "Oc1c(Cl)cc(Cl)cc1C1CC(c2ccc(Cl)c(Cl)c2)=NN1c1ccccc1 (stereo not drawn)"
  TARGET_UNDER_TEST: "B-Raf^V600E"
  IC50 [nM]: 970

// next entry
Need IC50 of Cc1ccc(C2=NN(c3ccccc3)C(c3cc(Cl)cc(Cl)c3O)C2)cc1 (stereo not drawn) , thanks.
7370

----------
# Test system: WM266.4 human melanoma cell line
# ASSAY_SUMMARY: Anti-proliferation assay (MTT)
# Format: cell-based
# RECORDED_CONDITIONS: WM 266-4, WM266.4 human melanoma cell growth, 24 h
METRIC_NAME: GI50 (nM)
Field: numeric (nM). Do not append units.

- MOLECULE: "Oc1ccc(Cl)cc1C1CC(c2ccc(Br)cc2)=NN1c1ccccc1 (stereo not drawn)"
  ASSAY_RESULT: 2730
- MOLECULE: "Oc1ccc(Cl)cc1C1CC(c2ccc(Cl)c(Cl)c2)=NN1c1ccccc1 (stereo not drawn)"
  ASSAY_RESULT: 1990

// next entry
Need GI50 of Oc1c(Cl)cc(Cl)cc1C1CC(c2ccc(Cl)cc2)=NN1c1ccccc1 (stereo not drawn) , thanks.
3590

----------
Measured melting point of individual entries

Need melting point of Oc1ccc(Br)cc1C1CC(c2ccc(F)cc2)=NN1c1ccccc1 (centres unmarked) [Compound C13] , thanks.
73 to 76 °C

Repeat with Oc1c(Cl)cc(Cl)cc1C1CC(c2ccc(F)cc2)=NN1c1ccccc1 (centres unmarked) [Compound C19]
37 to 39 °C

Repeat with Oc1c(Cl)cc(Cl)cc1C1CC(c2ccc(Br)cc2)=NN1c1ccccc1 (centres unmarked) [Compound C21]
56 to 59 °C

Repeat with COc1ccc(C2=NN(c3ccccc3)C(c3cc(Cl)cc(Cl)c3O)C2)cc1 (centres unmarked) [Compound C23]
33 to 34 °C

Repeat with Oc1c(Cl)cc(Cl)cc1C1CC(c2ccc(Cl)c(Cl)c2)=NN1c1ccccc1 (centres unmarked) [Compound C24]
63 to 65 °C

----------
Measured GI50 of individual entries
# Test system: WM266.4 human melanoma cell line
# ASSAY_SUMMARY: Anti-proliferation assay (MTT)
# Format: cell-based
# RECORDED_CONDITIONS: WM 266-4, WM266.4 human melanoma cell growth, 24 h
Form field: result (number plus unit)

Some solved cases for reference:
- COMPOUND: "Oc1ccc(Cl)cc1C1CC(c2ccc(Cl)cc2)=NN1c1ccccc1 (centres unmarked)"
  TARGET_UNDER_TEST: "WM266.4 human melanoma cell line"
  ASSAY_RESULT: "4.39 µM"
- COMPOUND: "Cc1ccc(C2=NN(c3ccccc3)C(c3cc(Cl)cc(Cl)c3O)C2)cc1 (centres unmarked)"
  TARGET_UNDER_TEST: "WM266.4 human melanoma cell line"
  ASSAY_RESULT: "23.9 µM"
- COMPOUND: "Oc1ccc(Br)cc1C1CC(c2ccc(Cl)c(Cl)c2)=NN1c1ccccc1 (centres unmarked)"
  TARGET_UNDER_TEST: "WM266.4 human melanoma cell line"
  ASSAY_RESULT: "1.88 µM"
- COMPOUND: "COc1ccc(C2=NN(c3ccccc3)C(c3cc(Br)ccc3O)C2)cc1 (centres unmarked)"
  TARGET_UNDER_TEST: "WM266.4 human melanoma cell line"
  ASSAY_RESULT: "2.03 µM"

// next entry
Need GI50 of Oc1ccc(Br)cc1C1CC(c2ccc(Cl)cc2)=NN1c1ccccc1 (centres unmarked) , thanks.
3.69 µM
